- protocol description: Thermal stability of CD58 variants by differential scanning calorimetry (DSC)
- Format: physicochemical
- condition label: HBS, 0.5 mg/mL
result type: Tm by Differential Scanning Calorimetry (DSC) (°C)

- molecule: "IgV V45C_M114C: CD58 IgV domain with V45 and M114 replaced by cysteines (stabilizing disulfide) (protein) SQQIYGVVYGNVTFHCPSNVPLKEVLWKKQKDKVAELENSEFRAFSSFKNRVYLDTVSGSLTIYNLTSSDEDEYEMESPNITDTCKFFLYVLESGGGGSHHHHHHHH"
  recorded result: 72.5
